biological target: TaqKR (Thermus aquaticus, UniProt P19821 1-832, E742K;A743R); assay: EMSA; 5 mM Mg2+; apparent Kd; EMSA: 3 nM DNA, 20 mM Tris-HCl pH 8.8, 10 mM NaCl, 5 mM MgCl2, 14 mM 2-mercaptoethanol, 0.1 mg/ml BSA, 5% glycerol, 40 C, 5 min; 1% agarose gel; settings: protein: recombinant; label: 32P on 27mer; primer-template; 27 bp duplex, 5' overhang 22 nt on the 49mer template
Sequence (P19821 whole entry E742K/A743R): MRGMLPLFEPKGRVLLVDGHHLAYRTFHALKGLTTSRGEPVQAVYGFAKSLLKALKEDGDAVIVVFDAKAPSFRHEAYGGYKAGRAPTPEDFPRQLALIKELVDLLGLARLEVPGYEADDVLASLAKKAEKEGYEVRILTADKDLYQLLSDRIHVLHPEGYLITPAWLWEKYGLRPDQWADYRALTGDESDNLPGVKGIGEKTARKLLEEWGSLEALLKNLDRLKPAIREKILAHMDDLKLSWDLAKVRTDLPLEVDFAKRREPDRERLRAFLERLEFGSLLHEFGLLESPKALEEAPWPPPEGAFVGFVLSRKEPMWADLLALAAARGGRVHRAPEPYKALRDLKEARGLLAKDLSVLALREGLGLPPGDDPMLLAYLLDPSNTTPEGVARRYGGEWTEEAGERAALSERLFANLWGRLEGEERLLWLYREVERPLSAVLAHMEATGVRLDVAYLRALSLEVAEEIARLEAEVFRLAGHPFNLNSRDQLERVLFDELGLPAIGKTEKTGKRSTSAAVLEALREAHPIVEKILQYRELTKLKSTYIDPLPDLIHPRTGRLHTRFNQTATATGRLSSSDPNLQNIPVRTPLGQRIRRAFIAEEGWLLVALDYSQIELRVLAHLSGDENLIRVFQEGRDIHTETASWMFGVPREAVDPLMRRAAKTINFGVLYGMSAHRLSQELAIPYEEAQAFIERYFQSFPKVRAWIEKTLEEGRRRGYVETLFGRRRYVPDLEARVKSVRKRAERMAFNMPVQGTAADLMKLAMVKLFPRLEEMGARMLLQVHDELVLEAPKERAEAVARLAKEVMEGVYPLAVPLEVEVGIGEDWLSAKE
pKd: −log10 of the molar value.

{"columns": ["binder", "pKd"],
 "data": [
  ["primed DNA (27mer/49mer) (dsDNA) DNA 1: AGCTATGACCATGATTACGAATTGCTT DNA 2: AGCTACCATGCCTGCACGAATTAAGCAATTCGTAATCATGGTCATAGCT", 8.00]
]}

Reference source for all entries: paper PMC4153296
